Biological target: ABHD6 (Mus musculus, UniProt Q8R2Y0)
Construct: Proteomes (mouse brain membrane fraction or cell lysates); from tissue; host or cells: mouse brain membrane fraction (or cell lysates, not specified)
Sequence (Q8R2Y0 whole entry): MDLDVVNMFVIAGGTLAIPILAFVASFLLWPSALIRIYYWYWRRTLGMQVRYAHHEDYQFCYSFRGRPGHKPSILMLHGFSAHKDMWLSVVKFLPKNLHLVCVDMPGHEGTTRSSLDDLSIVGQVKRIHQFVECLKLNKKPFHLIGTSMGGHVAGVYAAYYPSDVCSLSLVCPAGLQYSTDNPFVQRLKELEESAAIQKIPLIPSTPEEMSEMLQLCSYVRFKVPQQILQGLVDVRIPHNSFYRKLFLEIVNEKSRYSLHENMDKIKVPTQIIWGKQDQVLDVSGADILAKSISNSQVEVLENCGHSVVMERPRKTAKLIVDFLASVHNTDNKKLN
Experiment: In vitro competitive activity-based protein profiling (gel-based, FP-Rh or HT-01 probe)
Type: biochemical
Settings: 1 μM inhibitor; read-out: % Inhibition at 1 μM, C = ABHD6
RECORDED_ENDPOINT: inhibition at 1 µM

O=C(c1cnn(C(=O)N2CCN(Cc3cccnc3)CC2)c1)N1CCCC1
25 to 75%

Entry Cc1cnn(C(=O)N2CCN(Cc3ccc(Oc4ccccc4)cc3)CC2)c1 ; inhibition at 1 µM = > 75%

Entry O=C(N1CCN(Cc2cccc(Cl)c2)CC1)n1cc(Cl)cn1 ; inhibition at 1 µM = > 75%

Entry COc1cc(-c2ccccc2)ccc1CN1CCN(C(=O)n2cc(C#N)cn2)CC1 ; inhibition at 1 µM = > 75%

Entry Cc1cc(-c2ccccc2)ccc1CN1CCN(C(=O)n2cc(C(=O)N3CCCCC3)cn2)CC1 ; inhibition at 1 µM = > 75%

Entry O=C(N1CCN(c2ccccc2N2CCCC2)CC1)n1cc(C(F)(F)F)cn1 ; inhibition at 1 µM = > 75%

Entry Cc1cnn(C(=O)Nc2ccc3ccccc3c2)c1 ; inhibition at 1 µM = < 25%

Entry Cc1cc(-c2ccccc2)ccc1CN1CCN(C(=O)n2cc(Cl)cn2)CC1 ; inhibition at 1 µM = > 75%

Entry COc1cc(-c2ccccc2)ccc1CN1CCN(C(=O)n2cc(Cl)cn2)CC1 ; inhibition at 1 µM = > 75%

Entry O=C(Nc1ccc2ccccc2c1)n1cccn1 ; inhibition at 1 µM = < 25%

Entry N#Cc1cnn(C(=O)N2CCOCC2)c1 ; inhibition at 1 µM = 25 to 75%

Entry COc1cccc(N2CCN(C(=O)n3cc(C(F)(F)F)cn3)CC2)c1 ; inhibition at 1 µM = > 75%

Entry CS(=O)(=O)N1CCN(C(=O)n2cc(C(F)(F)F)cn2)CC1 ; inhibition at 1 µM = > 75%

Entry O=C(N1CCN(c2ccc(N3CCCC3)cc2)CC1)n1cc(C(F)(F)F)cn1 ; inhibition at 1 µM = > 75%

Entry N#Cc1cnn(C(=O)NCCCCc2ccccc2)c1 ; inhibition at 1 µM = < 25%

Entry O=C(N1CCN(Cc2cncnc2)CC1)n1cc(-c2ccccc2)cn1 ; inhibition at 1 µM = > 75%
